Target: T1, CRBN, Q96SW2;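 note: pooled lentiviral library of zinc finger degron-EGFP fusions in mCherry-positive Jurkat cells, FACS-sorted after compound exposure, with degron abundance counted by next-generation sequencing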
T1 chain: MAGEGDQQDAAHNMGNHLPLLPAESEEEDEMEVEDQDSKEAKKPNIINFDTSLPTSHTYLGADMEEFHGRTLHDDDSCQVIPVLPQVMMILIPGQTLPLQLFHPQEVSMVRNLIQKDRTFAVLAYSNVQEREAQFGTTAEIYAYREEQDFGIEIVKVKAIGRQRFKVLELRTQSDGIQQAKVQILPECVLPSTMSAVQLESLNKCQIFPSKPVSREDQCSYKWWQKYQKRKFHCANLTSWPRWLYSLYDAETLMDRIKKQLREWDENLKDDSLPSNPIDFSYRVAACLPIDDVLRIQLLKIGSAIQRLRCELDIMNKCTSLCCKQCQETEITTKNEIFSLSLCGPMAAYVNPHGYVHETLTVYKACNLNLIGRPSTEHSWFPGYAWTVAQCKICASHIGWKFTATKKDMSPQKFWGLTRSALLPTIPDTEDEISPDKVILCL
Test: log2 fold change of degron read counts, EGFP-low vs EGFP+ sorted cells (limma voom), compound-induced degradation; higher = more compound-induced degradation of the degron-EGFP fusion; degrons are variants of IKZF1/3 zinc finger 2; compound dose not given here
Settings: Jurkat; 18 h; compound: compound 19 (5-tert-butyl-thalidomide)
The full ranking holds about 8,300 sequences; the median of “log2 fold change of degron read counts, EGFP-low vs EGFP+ sorted cells (limma voom), compound-induced degradation” is about -1.1, and the highest 2% start at about 3.2. Shown is part of a subset that was picked to be rich in the highest values.
Quantity kind: log2 fold change of degron read counts

FQCDICGAHFTQKGNLLRHIKL [46F_47Q_49D_50I_52G_53A_54H_55F_67L_, Q9UKT9]; -1.42
FSCNQCGRTFTQKGNLLRHIKL [46F_47S_49N_50Q_52G_53R_54T_55F_67L_, Q9UKT9]; -2.51
FVCPVCGAHFTQKGNLLRHIKL [46F_47V_49P_50V_52G_53A_54H_55F_67L_, Q9UKT9]; -0.62
FYCDICGAHFTQKGNLLRHIKL [46F_47Y_49D_50I_52G_53A_54H_55F_67L_, Q9UKT9]; 2.51
FACPVCGAHFTQKGNLLRHIKL [46F_47A_49P_50V_52G_53A_54H_55F_67L_, Q9UKT9]; 2.93
FGCPVCGAHFTQKGNLLRHIKL [46F_47G_49P_50V_52G_53A_54H_55F_67L_, Q9UKT9]; 2.85
FWCDICGAHFTQKGNLLRHIKL [46F_47W_49D_50I_52G_53A_54H_55F_67L_, Q9UKT9]; 2.34
